# Test system: Red blood cells
# experimentSummary: Anti-sludge in vitro, "curative" procedure (protamine sulfate agglomeration of red blood cells)
# Type: cell-based, rats
# testParameters: 25 μg, reference tests 11
Listed here: items and their measured percent aggregates, size of agglomerates 4.
Value expressed in %; do not type the unit.

Please review the entries below; each comes with its answer.
{"columns": ["compound", "measuredOn", "val"],
 "data": [
  ["O=C1NCCc2ccsc21 [Derivative n°12]", "Red blood cells", 1],
  ["O=C(c1ccccc1Cl)N1CCc2sccc2C1=O [Derivative n°6]", "Red blood cells", 2],
  ["CC(=O)N1CC(c2ccccc2)c2ccsc2C1=O (stereo not drawn) [Derivative n°17]", "Red blood cells", 1]
]}

Lookup: percent aggregates, size of agglomerates 4 for O=C1c2ccsc2CCN1Cc1ccc(Cl)cc1 [Derivative n°3] ?
Found: 1

Lookup: # lookup: percent aggregates, size of agglomerates 4 of CC(=O)N1CCc2ccsc2C1=O [Derivative n°11]
Found: 2

Lookup: Query: percent aggregates, size of agglomerates 4; subject: O=C1c2sccc2CCN1Cc1ccccc1Cl [Derivative n°4]
Found: 1

----------
# Tested on: ovalbumin-induced systemic edema
# experimentSummary: Ovalbumin-induced systemic edema method
# Type: in vivo
# testParameters: rats, 100 mg/kg oral one hour before and with ovalbumin; after 3 hours
metric: Percent decrease of the edema reaction After 3 hours (%)
I only need the number, in %, no unit after it.

{"columns": ["molecule", "measurementUnit", "val"],
 "data": [
  ["O=C1c2ccsc2CCN1Cc1ccccc1 [Derivative n°2]", "%", 50],
  ["CC(=O)N1CC(c2ccccc2)c2ccsc2C1=O (stereo not shown) [Derivative n°17]", "%", 58],
  ["CC(=O)N1CCc2sccc2C1=O [Derivative n°5]", "%", 47]
]}

Read the next record carefully.
Lookup: What does the record list as Percent decrease of the edema reaction After 3 hours for COc1cc(COC(=O)C2Cc3sccc3C(=O)N2Cc2cc(OC)c(OC)c(OC)c2)cc(OC)c1OC (stereo not shown) [Derivative n°15] ?
Found: 58

----------
Collected percent free red blood cells (size 1) values appear next to each entry.
# Test system: Red blood cells
# experimentSummary: Anti-sludge in vitro, "preventive" treatment (protamine sulfate agglomeration of red blood cells)
# Format: cell-based, rats
# testParameters: 25 μg per tube, controls 32 (n°3, 4, 6) or 30 (n°11, 12, 17)
Please give a number only; it is taken to be in %.

{"columns": ["compound", "measuredOn", "val"],
 "data": [
  ["O=C1c2ccsc2CCN1Cc1ccc(Cl)cc1 [Derivative n°3]", "Red blood cells", 63],
  ["O=C1c2sccc2CCN1Cc1ccccc1Cl [Derivative n°4]", "Red blood cells", 68],
  ["O=C(c1ccccc1Cl)N1CCc2sccc2C1=O [Derivative n°6]", "Red blood cells", 65]
]}

Lookup: Query the reported percent free red blood cells (size 1) for Red blood cells; item: CC(=O)N1CC(c2ccccc2)c2ccsc2C1=O (stereo not drawn) [Derivative n°17]
Found: 58

Lookup: What value of percent free red blood cells (size 1) on Red blood cells does CC(=O)N1CCc2ccsc2C1=O [Derivative n°11] have?
Found: 60

Lookup: # value lookup — system Red blood cells, readout percent free red blood cells (size 1), item O=C1NCCc2ccsc21 [Derivative n°12]
Found: 61

----------
Reported percent agglomerates formed by 4 RBC values follow for various compounds
# Tested on: Red blood cells
# experimentSummary: Anti-sludge in vitro, "preventive" treatment (protamine sulfate agglomeration of red blood cells)
# Type: cell-based, rats
# testParameters: 100 μg per tube, controls 9 or 8
Quick note: give the figure in %, leave out the unit.

Lookup: Param item = `O=C(c1ccccc1Cl)N1CCc2sccc2C1=O` ; retrieve measured percent agglomerates formed by 4 RBC.
Found: 0

Lookup: So what does the record say about percent agglomerates formed by 4 RBC for `O=C1c2sccc2CCN1Cc1ccccc1Cl` ?
Found: 2

Lookup: May I ask what percent agglomerates formed by 4 RBC has been recorded for CC(=O)N1CC(c2ccccc2)c2ccsc2C1=O (stereo not drawn) ?
Found: 1

Lookup: Record request: percent agglomerates formed by 4 RBC value, item `O=C1c2ccsc2CCN1Cc1ccc(Cl)cc1`
Found: 1

Lookup: What measured percent agglomerates formed by 4 RBC goes with `CC(=O)N1CCc2ccsc2C1=O` ?
Found: 1

Lookup: Bench note: what percent agglomerates formed by 4 RBC did `O=C1NCCc2ccsc21` show?
Found: 2

----------
# Tested on: Red blood cells
# experimentSummary: Anti-sludge in vitro, "preventive" treatment (protamine sulfate agglomeration of red blood cells)
# Format: cell-based, rats
# testParameters: 25 μg per tube, controls 9 or 8
metric: percent agglomerates formed by 4 RBC

Here is how some compounds turned out for percent agglomerates formed by 4 RBC.
{"columns": ["compound", "measuredOn", "val"],
 "data": [
  ["O=C1NCCc2ccsc21 [Derivative n°12]", "Red blood cells", "2%"],
  ["CC(=O)N1CC(c2ccccc2)c2ccsc2C1=O (stereo not drawn) [Derivative n°17]", "Red blood cells", "3%"]
]}

Moving on to another compound below.
Lookup: What value of percent agglomerates formed by 4 RBC has been reported for the following compound? O=C1c2ccsc2CCN1Cc1ccc(Cl)cc1 [Derivative n°3]
Found: 2%

----------
# Tested on: A.D.P.-induced blood-platelet aggregation
# experimentSummary: A.D.P.-induced blood-platelet aggregation after oral treatment of rats
# Assay type: in vivo, Wistar rats
# testParameters: Rattus norvegicus, 100 mg/kg oral, 3 hrs after treatment, 10 μM A.D.P. solution, read-out: Percent inhibition of blood-platelet aggregation, A.D.P.
metric: inhibition at 100 mg/kg (%)
Write the answer as a number in %, unit excluded.

Answered examples (3):
{"columns": ["compound", "inhibition at 100 mg/kg (%)"],
 "data": [
  ["O=C1NCCc2ccsc21 [Derivative n°12]", 62.7],
  ["O=C1c2ccsc2CCN1Cc1ccccc1 [Derivative n°2]", 61.5],
  ["COc1cc(CN2C(=O)c3ccsc3CC2C(=O)O)cc(OC)c1OC (stereo not drawn) [Derivative n°16]", 62.4]
]}

Lookup: Which inhibition at 100 mg/kg value is on record for CC(=O)N1CCc2ccsc2C1=O [Derivative n°11] ?
Found: 63

Lookup: Fill in: inhibition at 100 mg/kg of COc1cc(COC(=O)C2Cc3sccc3C(=O)N2Cc2cc(OC)c(OC)c(OC)c2)cc(OC)c1OC (stereo not drawn) [Derivative n°15] is ___
Found: 61.8

Lookup: Find the recorded inhibition at 100 mg/kg belonging to O=C1NCC(c2ccccc2)c2ccsc21 (stereo not drawn) [Derivative n°18] and report it.
Found: 60.6

----------
Recorded Percent decrease of the edema reaction After 3 hours values for a group of compounds are listed next.
# Tested on: ovalbumin-induced systemic edema
# experimentSummary: Ovalbumin-induced systemic edema method
# Type: in vivo
# testParameters: rats, 100 mg/kg oral one hour before and with ovalbumin; after 3 hours
Unit % implied. Number only.

Here are 2 compounds together with their reported answers.
{"columns": ["smi", "val"],
 "data": [
  ["O=C1NCCc2sccc21", 63],
  ["O=C1NCCc2ccsc21", 64]
]}

Now take the following compound into account.
Lookup: I am curious: what Percent decrease of the edema reaction After 3 hours value has been reported for `CC(=O)N1CCc2ccsc2C1=O` ?
Found: 55

----------
# System: Red blood cells
# experimentSummary: Anti-sludge in vitro, "preventive" treatment (protamine sulfate agglomeration of red blood cells)
# Format: cell-based, rats
# testParameters: 25 μg per tube, controls 9 or 8
metric: percent agglomerates formed by 4 RBC (%)
State the answer as a number, implicitly in %.

Solved entries (count: 2):
{"columns": ["smi", "measurementUnit", "percent agglomerates formed by 4 RBC"],
 "data": [
  ["CC(=O)N1CCc2ccsc2C1=O", "%", 2],
  ["O=C1c2sccc2CCN1Cc1ccccc1Cl", "%", 3]
]}

Read the next record carefully.
Lookup: Sample `O=C(c1ccccc1Cl)N1CCc2sccc2C1=O` — what was its percent agglomerates formed by 4 RBC?
Found: 5

----------
# Tested on: A.D.P.-induced blood-platelet aggregation
# experimentSummary: A.D.P.-induced blood-platelet aggregation after oral treatment of rats
# Format: in vivo, Wistar rats
# testParameters: Rattus norvegicus, 100 mg/kg oral, 3 hrs after treatment, 10 μM A.D.P. solution, read-out: Percent inhibition of blood-platelet aggregation, A.D.P.
The reader will find reported inhibition at 100 mg/kg values listed item by item below.
State the value with its unit after it.

{"columns": ["compound", "metric", "val"],
 "data": [
  ["N#Cc1ccccc1CN1CCc2sccc2C1=O [Derivative n°8]", "inhibition at 100 mg/kg", "60.8%"]
]}

Lookup: For O=C1c2ccsc2CCN1Cc1ccccc1Cl [Derivative n°1] , what is its reported inhibition at 100 mg/kg?
Found: 60.4%

Lookup: Query: inhibition at 100 mg/kg; subject: COC(=O)c1ccccc1CN1CCc2sccc2C1=O [Derivative n°9]
Found: 61.6%
